# method.notes: logP (neutral / acidic, pH 2.3)
endpoint.name: logP

| compound | measured.number |
| --- | --- |
| CCN(C)C=Nc1cc(C)c(/C(C)=N/OCc2ccccc2)cc1C [Compound 31] | 4.65 |
| CCN(C)C=Nc1cc(C)c(/C(C)=N/OCc2c(C)noc2C)cc1C [Compound 36] | 3.63 |
| CCN(C)C=Nc1cc(C)c(/C(C)=N/OCc2ccc(C(C)(C)C)cc2)cc1C [Compound 12] | 6.26 |
| CCN(C)C=Nc1cc(C)c(/C(C)=N/OCC=C(C)C)cc1C [Compound 33] | 4.86 |
| CCN(C)C=Nc1cc(C)c(/C(C)=N/OC(C)C)cc1C [Compound 10] | 4.42 |

====

# method.notes: logP (neutral / acidic, pH 2.3)
# particulars: pH 2.3
endpoint.name: logP

| smi | measured.number |
| --- | --- |
| CCCO/N=C(\C)c1cc(C)c(N=CN(C)CC)cc1C | 1.9 |

(a) Cc1cc(C=NOC(C)C)c(C)cc1N
(b) CCN(C)C=Nc1cc(C)c(/C(C)=N/CCCC(C)(C)C)cc1C
-- ask Hi, I'm comparing two records. Which one has the lower logP, a or b ? Answer = label.
-- reply b
(b: 1.79, a: 2.77)

====

# method.notes: logP (neutral / acidic, pH 2.3)
# particulars: pH 2.3
endpoint.name: logP

Look over these answered cases.
| compound | measured.number |
| --- | --- |
| CCN(C)C=Nc1cc(C)c(/C(C)=N/OC2CCCC2)cc1C [Compound 14] | 2.2 |
| CCN(C)C=Nc1cc(C)c(/C=N/OC(C)(C)C)cc1C [Compound 39] | 2.11 |
| CCN(C)C=Nc1cc(C)c(/C(C)=N/OCC(F)(F)F)cc1C [Compound 17] | 1.88 |

(1) CCN(C)C=Nc1cc(C)c(/C(C)=N/OC)cc1C [Compound 24]
(2) CCN(C)C=Nc1cc(C)c(/C(C)=N/OC(C2CC2)C2CC2)cc1C [Compound 20]
(3) CCN(C)C=Nc1cc(C)c(/C(C)=N/OCc2c(Cl)cccc2Cl)cc1C [Compound 29]
-- ask Rank descending by logP. Labels, requested order.
-- reply 3, 2, 1
(3: 3.75, 2: 2.38, 1: 1.38)

(P) CCN(C)C=Nc1cc(C)c(/C(C)=N/OCc2c(C)noc2C)cc1C [Compound 36]
(Q) CCN(C)C=Nc1cc(C)c(/C(C)=N/OCCOc2cccc(C(F)(F)F)c2)cc1C [Compound 34]
-- ask Input pair: P , Q . Output: entry with lower logP. Answer by stating the label of the chosen item.
-- reply P

====

# method.notes: logP (neutral / acidic, pH 2.3)
endpoint.name: logP

| compound | endpoint.name | measured.number |
| --- | --- | --- |
| CCN(C)C=Nc1cc(C)c(/C=N/OCc2ccc3c(c2)OCOC3)cc1C | logP | 4.71 |
| CC#CCO/N=C(\C)c1cc(C)c(N=CN(C)CC)cc1C | logP | 3.91 |
| CCN(C)C=Nc1cc(C)c(/C(C)=N/OCc2c(Cl)cccc2Cl)cc1C | logP | 5.51 |
| CCN(C)C=Nc1cc(C)c(/C(C)=N/OC(C)c2ccc(Cl)cc2)cc1C (stereo not shown) | logP | 5.67 |

====

# method.notes: logP (neutral / acidic, pH 2.3)
# particulars: pH 2.3
endpoint.name: logP

| smi | logP |
| --- | --- |
| CC#CCO/N=C(\C)c1cc(C)c(N=CN(C)CC)cc1C | 1.72 |
| CCN(C)C=Nc1cc(C)c(/C(C)=N/OCc2ccc(Cl)c(Cl)c2)cc1C | 2.71 |
| CCN(C)C=Nc1cc(C)c(/C(C)=N/OC(C)C)cc1C | 1.92 |
| CCN(C)C=Nc1cc(C)c(/C(C)=N/OCc2ccc(Cl)nc2)cc1C | 1.67 |
| CCN(C)C=Nc1cc(C)c(/C=N/OC(C)C)cc1C | 1.76 |
| CCO/N=C(\C)c1cc(C)c(N=CN(C)CC)cc1C | 1.6 |
| CCN(C)C=Nc1cc(C)c(/C(C)=N/OCc2nc(-c3ccccc3)cs2)cc1C | 2.3 |
| CCN(C)C=Nc1cc(C)c(/C=N/OCc2ccc3c(c2)OCOC3)cc1C | 2.02 |
| CCN(C)C=Nc1cc(C)c(/C=N/OCc2ccccc2)cc1C | 2.02 |

====

# method.notes: logP (neutral / acidic, pH 2.3)
# particulars: pH 2.3
endpoint.name: logP

| molecule | measured.number |
| --- | --- |
| CCN(C)C=Nc1cc(C)c(/C(C)=N/Oc2ccccc2)cc1C [Compound 11] | 2.21 |
| C#CC(C)O/N=C(\C)c1cc(C)c(N=CN(C)CC)cc1C (stereo not shown) [Compound 15] | 1.8 |
| CCN(C)C=Nc1cc(C)c(/C(C)=N/OCc2ccccc2)cc1C [Compound 31] | 2.07 |
| CCN(C)C=Nc1cc(C)c(/C(C)=N/OCOCCOC)cc1C [Compound 18] | 1.43 |
| CCN(C)C=Nc1cc(C)c(/C(C)=N/OCC[Si](C)(C)C)cc1C [Compound 44] | 2.76 |
| CCN(C)C=Nc1cc(C)c(/C(C)=N/OCC=C(C)C)cc1C [Compound 33] | 2.24 |
| C=CCO/N=C(\C)c1cc(C)c(N=CN(C)CC)cc1C [Compound 35] | 1.72 |
